Value source: ChEMBL document CHEMBL1145280

Test system: Internal ribosome entry site (IRES)
protocol details: Inhibitory concentration against hepatitis C virus internal ribosomal entry site
Format: nucleic-acid assay, Hepacivirus hominis
test readout: pIC50
Answers are plain numbers, as −log10 of the molar value.

* CCN(CC)c1ccc2[o+]c3cc(C)c(N)cc3nc2c1 | 6.00

Dear colleague, could you send me pIC50 for each of the items below? Thanks.
1. Nc1ccc2nc3ccc(N)cc3[s+]c2c1 [THIONIN ACETATE]
2. CN(C)c1ccc(Nc2ccc(N(C)C)cc2)cc1
3. Cc1cc2nc3ccc(N(C)C)cc3nc2cc1N

1: 5.54; 2: 5.66; 3: 7.70

====

Non-standard residues stand in square brackets, D forms with d. Residues, ends and D or L forms follow the SMILES beside them. *: point of attachment. Dip = N[C@H](C(=O)O)C(c1ccccc1)c1ccccc1; X1 = O=C(O)C(=O)[C@H](CC(F)F)N*; Cha = N[C@@H](CC1CCCCC1)C(=O)O
The compounds below have reported Ki for NS3 (Hepatitis C virus).
Give bare numbers, in nM.

Reference set, count: 3
- CC(C)COC(=O)N[C@@H](CCC(=O)O)C(=O)N[C@@H](CC(C)C)C(=O)N[C@@H](CC(F)F)C(=O)NCCc1ccc(C(=O)O)cc1Cl: 600
- CC(=O)N[C@@H](CC(=O)O)C(=O)N[C@@H](CCC(=O)O)C(=O)N[C@H](C(=O)N[C@@H](CCC(=O)O)C(=O)N[C@@H](CC1CCCCC1)C(=O)N[C@@H](CC(F)F)C(=O)C(=O)O)C(c1ccccc1)c1ccccc1 (Ac-DE[Dip]E[Cha]-X1): 10
- O=C(O)[C@H](Cc1ccccc1)N(Cc1cccc(C(F)(F)F)c1)C(=O)c1ccc(Cl)cc1Cl: 2200

Provide value of Ki for this record tested with NS3 (Hepatitis C virus): CC(=O)N[C@@H](CC(=O)O)C(=O)N[C@@H](CCC(=O)O)C(=O)N[C@H](C(=O)N[C@@H](CCC(=O)O)C(=O)N[C@@H](CC1CCCCC1)C(=O)N[C@@H](CS)C(=O)O)C(c1ccccc1)c1ccccc1 (Ac-DE[Dip]E[Cha]C-OH) 40
